Each recorded value in this set is attributed to PubChem BioAssay (NCI).

TGI for assorted compounds
- Tested on: HT29 colon
- experimentNotes: NCI tumour cell line growth inhibition, 48 h
Express your answer in µM, writing the number without its unit.

Past entries and their recorded results:
compound | TGI (µM)
COc1ccc(OC)c([N+](=O)[O-])c1-c1nc2sc(C)cn2c1/C=N/N=C(N)N | 50.1
CCCCOc1nc2ccccc2cc1C1CNC(=O)c2ccccc2N1 (centres undefined) | 10.6
NC(=S)c1cn(C2OC(CO)C(O)C2O)c2ncnc(N)c12 (centres undefined) | 3.96
N#CCCCCCn1c2ccccc2c2c3c(c4c5ccccc5[nH]c4c21)C(=O)N(O)C3=O | 4.66
CC(=O)N1C(=O)/C(=C\C(=O)c2ccc(Cl)cc2)c2ccccc21 | 20.7

Please report the recorded TGI for CN(C)CC(C)(C)C(=O)/C=C/c1ccccc1 .
33.9

====

- Tested on: HT29 colon
- experimentNotes: NCI tumour cell line growth inhibition, 48 h; in the data active = GI50 below about 0.43 µM; inactive = the rest
Valid outcomes are listed here; reply with one: active, inactive

Worked examples, 5 molecules total:
smi | experimentalSystem | qualitativeLabel
CCC[CH2][Sn]1([CH2]CCC)[O]N=Cc2ccccc2[O]1 | HT29 colon | inactive
Clc1ccc2c(NCCNc3nc(Cl)nc4ccccc34)ccnc2c1 | HT29 colon | active
Cn1cc(C2=C(c3cccc(Cl)c3)C(=O)NC2=O)c2ccccc21 | HT29 colon | inactive
Cn1ccnc1C(=O)/C=C/c1ccc(CC(=O)Nc2cc(F)c(F)c(F)c2)cc1 | HT29 colon | inactive
CC(=O)[O-].CC(=O)[O-].CC(=O)[O-].CC(=O)[O-].CO.CO.CO.[Rh+2].[Rh+2].c1ccc(-c2ccccn2)nc1 | HT29 colon | inactive

What classification did c1cc[c]([Sn]([O]c2cccc3cccnc23)([c]2ccccc2)[c]2ccccc2)cc1 end up with in this test?
active

What classification did COc1cc2cc(Oc3ccc(NC(=O)Nc4cc(C(F)(F)F)cc(C(F)(F)F)c4)cc3)c(C)nc2cc1OCCN1CCCCC1 end up with in this test?
inactive

====

- System: UO-31 renal
- experimentNotes: NCI tumour cell line growth inhibition, 48 h; in the data active means GI50 below about 0.43 µM; inactive means the rest
*1 amine or outer side, *2 acyl side, *3 side chain or, on linkers, in order; H or OH if unused. Where a SMILES comes first, the peptide text is derived from it. [ ]: non-standard residue; d: D form. The star is where a group is joined. X12 = NCCCCC(N[*:1])C(=O)CN1CCCC1C(=O)[*:2]; Pentadecanoyl = CCCCCCCCCCCCCCC(=O)*
Valid outcomes are listed here; reply with one: 1.0 for active, 0.0 for inactive

Worked examples, 8 molecules total:
molecule | qualitativeLabel
COc1ccc(C(=O)C(CN(C)C)c2ccccc2)cc1 (centres undefined) | 0.0
Cn1ccnc1C(=O)/C=C/c1ccc(CC(=O)Nc2cc(F)c(F)c(F)c2)cc1 | 0.0
NC(=S)c1cn(C2OC(CO)C(O)C2O)c2ncnc(N)c12 (centres undefined) | 1.0
c1ccc(-c2nn(-c3ccccc3)[n+](-c3ccccc3-c3ccccc3)n2)cc1 | 0.0
CCCCCCCCCCCCCCC(=O)NC(CCCCN)C(=O)CN1CCCC1C(=O)NCC(=O)NC(Cc1ccccc1)C(=O)N1CCCC1C(=O)NC(CO)C(=O)NC(Cc1ccc(O)cc1)C(=O)NC(CCCCN)C(=O)NC(CC(C)C)C(=O)NC(CCCN=C(N)N)C(=O)N1CCCC1C(=O)NCC(N)=O (centres undefined) (Pentadecanoyl-[X12]GFPSYKLRPG-NH2; configuration not given here) | 0.0
Cc1c(-c2ccnc(N)n2)c2c(n1-c1ccccc1)C(=O)c1ccccc1C2=O | 0.0
COc1ccc(C2C3=C(COC3=O)N(CCO)c3cc4c(cc32)CCC4)cc1OC (centres undefined) | 0.0
CN(C)CC1CCCCCCCCCCC1=O (centres undefined) | 0.0

Now examine the next entry.
What classification did Cn1cc(C2=C(c3cn(C)c4cc(Cl)ccc34)C(=O)NC2=O)c2ccccc21 end up with in this test?
1.0
